Catalogue of growth readings, one per entry.
tested on: NCI-H23 lung; assay: NCI-60 one-dose screen, 48 h (100 = growth as untreated, 0 = no growth, -100 = all killed); details: 10 µM unless noted
This is part of a sample that, as a whole, favours compounds with a hit. Of some 83,000 tested, about 20% had one in any assay.
property: growth (%)

1) N=C1C(c2nc(-c3ccc(Br)cc3)cs2)=C(O)CN1CC1CCCO1 (centres undefined) : 88.8
2) CCN(CC)CCn1nc2c3c(cccc3c1=O)-c1ccccc1-2 : 23.7
3) O=c1ccn2nc3ccccc3c2[nH]1 : 94.6
4) COc1ccc2c(c1)O/C(=C\c1cccc(OCC(=O)Nc3nc(C)c(C)s3)c1)C2=O : 19.4
5) COc1ccc(-c2csc(C3=C(O)CN(C(C)C)C3=N)n2)cc1OC : 101
6) C=C(C)[C@@H]1CC[C@]2(C)[C@H](CC=C3[C@@H]4CC(C)(C)CC[C@]4(C(N)=O)CC[C@]32C)[C@@]1(C)CCC#N : 27.9
7) CCOc1ccccc1-n1c(CN2CCN(C(=O)COc3ccc(CNCCCCCCN4C5CCCC4CC(OC(=O)Nc4cc(C)ccc4OC)C5)cc3)CC2)nc2ccccc2c1=O (centres undefined) : -82.6
8) CCc1ccccc1-n1c(-c2ccc(Cl)cc2)cc(-c2ccc(OC)cc2)c(C#N)c1=O : 102
9) c1ccc2cc3nc4cc5ccccc5cc4nc3cc2c1 : 88.8
